molecular target: T1, recombinant human IL-6 (human, UniProt P05231 30-212); test: SPR Biacore, purified Ab on Protein A chip, IL-6 analyte, 37 C
T1 construct: Bought protein
T1 sequence (P05231 30-212 limits assumed): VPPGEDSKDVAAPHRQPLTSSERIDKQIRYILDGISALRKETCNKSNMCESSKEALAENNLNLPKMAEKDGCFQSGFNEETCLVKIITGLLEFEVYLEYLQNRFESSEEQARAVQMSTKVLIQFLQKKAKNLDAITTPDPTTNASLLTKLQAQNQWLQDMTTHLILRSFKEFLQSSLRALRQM
Parameter: kon (M⁻¹ s⁻¹)
# unit: M⁻¹ s⁻¹ | format: bare number

Query :: Give the value of kon reported for the following: anti-IL-6 antibody, light chain D49E (heavy chain WT) (antibody, V domains shown, See note of m2; also called WT / D49E) VH: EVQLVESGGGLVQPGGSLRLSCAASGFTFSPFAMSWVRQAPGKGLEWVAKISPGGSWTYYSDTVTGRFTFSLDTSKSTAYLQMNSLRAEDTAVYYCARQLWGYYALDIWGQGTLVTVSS VL: DIQLTQSPSSLSASVGDRVTITCSASISVSYMYWYQQKPGKAPKLLIYEMSNLASGVPSRFSGSGSGTDFTLTISSLQPEDFATYYCMQWSGYPYTFGQGTKVEIK
Result :: 668000

Query :: Give the value of kon reported for the following: anti-IL-6 antibody, heavy chain variant II (M34W, G66D, I108V) / light chain variant III (M32L, M50D, N52S, M88Q) (antibody, V domains shown, See note of m39; also called M34W, G66D, I108V/ M32L, M50D, N52S, M88Q; II/III) VH: EVQLVESGGGLVQPGGSLRLSCAASGFTFSPFAWSWVRQAPGKGLEWVAKISPGGSWTYYSDTVTDRFTFSLDTSKSTAYLQMNSLRAEDTAVYYCARQLWGYYALDVWGQGTLVTVSS VL: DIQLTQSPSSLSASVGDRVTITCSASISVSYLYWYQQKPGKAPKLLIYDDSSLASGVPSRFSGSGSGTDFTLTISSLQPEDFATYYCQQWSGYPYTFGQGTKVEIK
Result :: 1.19e+06

Query :: Give the value of kon reported for the following: anti-IL-6 antibody, heavy chain variant I (M34I, G66D, I108V) / light chain variant IV (M32L, M50A, N52S, M88Q) (antibody, V domains shown, See note of m39; also called M34I, G66D, I108V/ M32L, M50A, N52S, M88Q; I/IV) VH: EVQLVESGGGLVQPGGSLRLSCAASGFTFSPFAISWVRQAPGKGLEWVAKISPGGSWTYYSDTVTDRFTFSLDTSKSTAYLQMNSLRAEDTAVYYCARQLWGYYALDVWGQGTLVTVSS VL: DIQLTQSPSSLSASVGDRVTITCSASISVSYLYWYQQKPGKAPKLLIYDASSLASGVPSRFSGSGSGTDFTLTISSLQPEDFATYYCQQWSGYPYTFGQGTKVEIK
Result :: 1.15e+06
